Documented relative β-galactosidase activity, inducer Ts across a set of molecules
# Test system: tetA promoter (PtetA)-lacZ reporter in E. coli KM3
# Assay type: cell-based
# Study conditions: Table 4; thifensulfuron 20 μg/ml (20 ppm); 48 hrs at 30° C.
Please give only the number in your answer, with no unit.

q: Fill in reported relative β-galactosidase activity, inducer Ts for this entry: L1-9: library L1 hit, sulfonylurea-responsive TetR(B) variant, parent of L2 and L4 (protein, Sulfonylurea responsive repressor L1-09) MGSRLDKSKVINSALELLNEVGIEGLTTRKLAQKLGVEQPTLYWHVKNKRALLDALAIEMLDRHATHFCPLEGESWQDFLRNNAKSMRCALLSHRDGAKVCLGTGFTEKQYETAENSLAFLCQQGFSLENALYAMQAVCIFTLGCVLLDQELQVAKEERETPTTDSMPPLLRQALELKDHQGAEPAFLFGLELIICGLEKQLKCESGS
a: 1.1

Attention now turns to another entry.
q: Fill in reported relative β-galactosidase activity, inducer Ts for this entry: L1-2: library L1 hit, sulfonylurea-responsive TetR(B) variant, SEQ ID NO: 3 (protein, Sulfonylurea responsive repressor L1-02) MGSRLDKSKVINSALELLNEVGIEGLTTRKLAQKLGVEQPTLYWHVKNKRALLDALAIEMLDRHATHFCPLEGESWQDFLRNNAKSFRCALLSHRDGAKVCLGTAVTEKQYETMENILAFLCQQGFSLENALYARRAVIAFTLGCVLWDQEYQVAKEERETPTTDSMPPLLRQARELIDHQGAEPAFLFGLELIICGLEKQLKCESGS
a: 1.6

These measurements were taken from patent US8580556B2.
